TARGET: UniProt:P11712
Sequence (P11712 whole entry): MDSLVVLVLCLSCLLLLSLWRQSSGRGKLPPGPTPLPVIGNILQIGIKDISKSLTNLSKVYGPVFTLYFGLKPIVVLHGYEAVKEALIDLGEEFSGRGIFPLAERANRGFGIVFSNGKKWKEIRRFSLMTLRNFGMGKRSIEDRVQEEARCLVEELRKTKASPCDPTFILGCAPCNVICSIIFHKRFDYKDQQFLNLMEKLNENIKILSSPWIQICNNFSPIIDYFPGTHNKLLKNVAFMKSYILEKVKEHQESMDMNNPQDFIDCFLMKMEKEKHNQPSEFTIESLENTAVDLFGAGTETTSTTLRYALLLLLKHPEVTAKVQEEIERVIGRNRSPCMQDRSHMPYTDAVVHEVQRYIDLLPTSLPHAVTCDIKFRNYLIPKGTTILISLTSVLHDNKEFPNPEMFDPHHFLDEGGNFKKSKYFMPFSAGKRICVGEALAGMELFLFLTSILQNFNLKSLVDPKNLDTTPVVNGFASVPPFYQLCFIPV
READOUT: pIC50
# pIC50: negative log10 of molar concentration; output just the value

Input: pIC50 lookup needed for Cn1cc(S(=O)(=O)N2CCC3=Cc4c(cnn4-c4ccc(F)cc4)C[C@]3(C(=O)c3cc(C(F)(F)F)ccn3)C2)cn1 , thanks.
Output: 5.70

###

TARGET: Glucocorticoid receptor (Canis lupus familiaris, UniProt A0A8C0QLS2)
Sequence (A0A8C0QLS2 whole entry): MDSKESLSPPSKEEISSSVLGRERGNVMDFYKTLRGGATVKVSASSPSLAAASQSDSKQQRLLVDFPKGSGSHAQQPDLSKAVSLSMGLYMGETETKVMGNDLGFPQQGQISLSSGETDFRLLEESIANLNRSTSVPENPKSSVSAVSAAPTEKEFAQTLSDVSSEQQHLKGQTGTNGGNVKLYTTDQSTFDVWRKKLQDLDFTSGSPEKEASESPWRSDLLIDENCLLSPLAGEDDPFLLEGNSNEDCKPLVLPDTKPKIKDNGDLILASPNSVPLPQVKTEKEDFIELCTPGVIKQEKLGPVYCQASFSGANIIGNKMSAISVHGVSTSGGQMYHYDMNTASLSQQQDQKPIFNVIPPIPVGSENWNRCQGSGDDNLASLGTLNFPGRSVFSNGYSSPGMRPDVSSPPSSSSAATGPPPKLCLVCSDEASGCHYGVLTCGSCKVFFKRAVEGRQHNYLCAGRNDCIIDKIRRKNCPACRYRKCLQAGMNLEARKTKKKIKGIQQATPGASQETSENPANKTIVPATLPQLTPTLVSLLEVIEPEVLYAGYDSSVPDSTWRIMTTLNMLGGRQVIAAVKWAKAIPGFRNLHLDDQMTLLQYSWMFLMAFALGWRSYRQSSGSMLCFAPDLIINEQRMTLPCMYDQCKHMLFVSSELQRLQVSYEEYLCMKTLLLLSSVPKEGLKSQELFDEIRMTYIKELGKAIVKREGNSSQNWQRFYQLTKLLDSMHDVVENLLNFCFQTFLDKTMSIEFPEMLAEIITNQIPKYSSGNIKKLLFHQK
ASSAY_NAME: Agonist activity at dog glucocorticoid receptor in primary hepatocytes assessed as induction of tyrosine amino transferase activity measured after 20 hrs
READOUT: EC50

Input: EC50 lookup needed for Cn1cc(S(=O)(=O)N2CCC3=Cc4c(cnn4-c4ccc(F)cc4)C[C@]3(C(=O)c3cc(C(F)(F)F)ccn3)C2)cn1 , thanks.
Output: > 10 µM

###

Consider the following compounds and their measured pKi readings.
TARGET: Glucocorticoid receptor (Homo sapiens, UniProt P04150)
ASSAY_NAME: Antagonist activity at glucocorticoid receptor in human HepG2 cells assessed as inhibition of dexamethasone-induced tyrosine amino transferase activity preincubated for 30 mins followed by dexamethasone addition measured after 20 hrs
Assay type: cell-based
# pKi: negative log10 of molar concentration; output just the value

Past entries and their recorded results:
- SMILES_CODE: "CCn1cc(S(=O)(=O)N2CCC3=Cc4c(cnn4-c4ccc(F)cc4)C[C@]3(C(=O)c3cc(C(F)(F)F)ccn3)C2)cn1"
  pKi: 8.34
- SMILES_CODE: "Cc1ccc(C(=O)[C@]23Cc4cnn(-c5ccc(F)cc5)c4C=C2CCN(S(=O)(=O)c2cccc(C)c2)C3)nc1"
  pKi: 8.12
- SMILES_CODE: "CCn1nccc1S(=O)(=O)N1CCC2=Cc3c(cnn3-c3ccc(F)cc3)C[C@]2(C(=O)c2cc(C(F)(F)F)ccn2)C1"
  pKi: 8.00
- SMILES_CODE: "Cc1cnc(C(=O)[C@]23Cc4cnn(-c5ccc(F)cc5)c4C=C2CCN(S(=O)(=O)c2ccc(Cl)c(Cl)c2)C3)s1"
  pKi: 8.13
- SMILES_CODE: "Cc1cnc(C(=O)[C@]23Cc4cnn(-c5ccc(F)cc5)c4C=C2CCN(S(=O)(=O)c2cccc(C(F)(F)F)c2)C3)s1"
  pKi: 8.00

Input: pKi lookup needed for Cc1c(S(=O)(=O)N2CCC3=Cc4c(cnn4-c4ccc(F)cc4)C[C@]3(C(=O)c3cc(C(F)(F)F)ccn3)C2)cnn1C , thanks.
Output: 7.92

Input: Repeat for the following compound: Cc1ccnc(C(=O)[C@]23Cc4cnn(-c5ccc(F)cc5)c4C=C2CCN(S(=O)(=O)c2cc(F)cc(F)c2)C3)c1
Output: 8.37

Input: Repeat for the following compound: Cn1ccc(S(=O)(=O)N2CCC3=Cc4c(cnn4-c4ccc(F)cc4)C[C@]3(C(=O)c3cc(C(F)(F)F)ccn3)C2)n1
Output: 8.18

Input: Repeat for the following compound: O=C(c1nccs1)[C@]12Cc3cnn(-c4ccc(F)cc4)c3C=C1CCN(S(=O)(=O)c1ccc(F)c(F)c1)C2
Output: 7.43

Input: Repeat for the following compound: CCn1nccc1S(=O)(=O)N1CC[C@H]2Cc3c(cnn3-c3ccc(F)cc3)C[C@]2(C(=O)c2cc(C(F)(F)F)ccn2)C1
Output: 7.17

###

ASSAY_NAME: Cmax in Sprague-Dawley CD-1 rat plasma at 3 mg/kg, po administered as cassette dose via gavage measured up to 24 hrs by LC/MS analysis
Type: ADME, organism-based
Parameters: dose 3 mg/kg, route oral
Consider the following molecules and their measured Cmax readings.
Report only the number, with the unit ng/mL understood.

Past entries and their recorded results:
- SMILES_CODE: "N#Cc1cccc(S(=O)(=O)N2CCC3=Cc4c(cnn4-c4ccc(F)cc4)C[C@]3(C(=O)c3ccccn3)C2)c1"
  Cmax (ng/mL): 140
- SMILES_CODE: "O=C(c1ccccn1)[C@]12Cc3cnn(-c4ccc(F)cc4)c3C=C1CCN(S(=O)(=O)c1ccc(F)c(F)c1)C2"
  Cmax (ng/mL): 215

Now examine the next entry.
Input: Cmax lookup needed for Cn1ccc(S(=O)(=O)N2CCC3=Cc4c(cnn4-c4ccc(F)cc4)C[C@]3(C(=O)c3cc(C(F)(F)F)ccn3)C2)n1 , thanks.
Output: 291

###

TARGET: Glucocorticoid receptor (Homo sapiens, UniProt P04150)
ASSAY_NAME: Displacement of fluormone GS Red from human glucocorticoid receptor after 4 hrs by fluorescence polarization assay
READOUT: pKi
# pKi: negative log10 of molar concentration; output just the value

Past entries and their recorded results:
- SMILES_CODE: "Cc1cccc(S(=O)(=O)N2CCC3=Cc4c(cnn4-c4ccc(F)cc4)C[C@]3(C(=O)c3cccc(C)n3)C2)c1"
  pKi: 9.70
- SMILES_CODE: "O=C(c1nccs1)[C@]12Cc3cnn(-c4ccc(F)cc4)c3C=C1CCN(S(=O)(=O)c1ccc(F)c(F)c1)C2"
  pKi: 9.64
- SMILES_CODE: "Cc1csc(C(=O)[C@]23Cc4cnn(-c5ccc(F)cc5)c4C=C2CCN(S(=O)(=O)c2cccc(C(F)(F)F)c2)C3)n1"
  pKi: 9.06

Input: What measured pKi is associated with Cc1ccnc(C(=O)[C@]23Cc4cnn(-c5ccc(F)cc5)c4C=C2CCN(S(=O)(=O)c2cccc(C(F)(F)F)c2)C3)c1 on Glucocorticoid receptor (Homo sapiens, UniProt P04150)?
Output: 9.68

Input: Repeat for the following molecule: Cc1ccnc(C(=O)[C@]23Cc4cnn(-c5ccc(F)cc5)c4C=C2CCN(S(=O)(=O)c2ccc(C(F)(F)F)c(F)c2)C3)c1
Output: 9.38

Input: Repeat for the following molecule: Cc1ccnc(C(=O)[C@]23Cc4cnn(-c5ccc(F)cc5)c4C=C2CCN(S(=O)(=O)c2cc(F)cc(F)c2)C3)c1
Output: 9.85

Input: Repeat for the following molecule: O=C(c1ccccn1)[C@]12Cc3cnn(-c4ccc(F)cc4)c3C=C1CCN(S(=O)(=O)c1cc(F)cc(F)c1)C2
Output: 9.92

Input: Repeat for the following molecule: Cc1cnc(C(=O)[C@]23Cc4cnn(-c5ccc(F)cc5)c4C=C2CCN(S(=O)(=O)c2cccc(C(F)(F)F)c2)C3)s1
Output: 9.54

Input: Repeat for the following molecule: Cc1ccnc(C(=O)[C@]23Cc4cnn(-c5ccc(F)cc5)c4C=C2CCN(S(=O)(=O)c2cccc(C#N)c2)C3)c1
Output: 9.82

###

Consider the following compounds and their measured pKi readings.
TARGET: Glucocorticoid receptor (Homo sapiens, UniProt P04150)
Sequence (P04150 whole entry): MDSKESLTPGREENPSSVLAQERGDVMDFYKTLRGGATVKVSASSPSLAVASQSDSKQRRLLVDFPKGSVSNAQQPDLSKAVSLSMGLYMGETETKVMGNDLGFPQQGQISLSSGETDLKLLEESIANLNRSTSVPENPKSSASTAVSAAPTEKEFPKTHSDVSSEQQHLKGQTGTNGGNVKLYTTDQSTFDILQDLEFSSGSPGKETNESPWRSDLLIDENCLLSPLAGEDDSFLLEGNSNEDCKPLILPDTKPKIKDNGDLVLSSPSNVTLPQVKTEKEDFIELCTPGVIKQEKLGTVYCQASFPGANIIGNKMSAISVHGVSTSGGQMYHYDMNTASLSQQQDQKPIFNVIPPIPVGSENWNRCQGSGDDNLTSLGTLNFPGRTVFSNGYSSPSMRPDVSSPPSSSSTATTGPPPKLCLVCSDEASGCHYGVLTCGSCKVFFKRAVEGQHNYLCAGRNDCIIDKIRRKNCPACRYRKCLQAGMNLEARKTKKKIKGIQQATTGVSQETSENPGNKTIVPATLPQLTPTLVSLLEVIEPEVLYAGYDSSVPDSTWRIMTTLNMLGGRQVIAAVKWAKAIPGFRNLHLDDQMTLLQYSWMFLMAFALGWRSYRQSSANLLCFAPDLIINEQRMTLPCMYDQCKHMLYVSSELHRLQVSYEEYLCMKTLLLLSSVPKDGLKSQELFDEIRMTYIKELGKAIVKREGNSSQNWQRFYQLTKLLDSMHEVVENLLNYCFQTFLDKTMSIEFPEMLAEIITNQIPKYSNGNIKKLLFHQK
ASSAY_NAME: Antagonist activity at glucocorticoid receptor in human HepG2 cells assessed as inhibition of dexamethasone-induced tyrosine amino transferase activity preincubated for 30 mins followed by dexamethasone addition measured after 20 hrs
Format: cell-based
# pKi: negative log10 of molar concentration; output just the value

Past entries and their recorded results:
- SMILES_CODE: "O=C(c1cc(C(F)(F)F)ccn1)[C@]12Cc3cnn(-c4ccc(F)cc4)c3C=C1CCN(S(=O)(=O)c1cn[nH]c1)C2"
  pKi: 8.12
- SMILES_CODE: "CCc1ccnc(C(=O)[C@]23Cc4cnn(-c5ccc(F)cc5)c4C=C2CCN(S(=O)(=O)c2cccc(C#N)c2)C3)c1"
  pKi: 8.77
- SMILES_CODE: "Cc1cnc(C(=O)[C@]23Cc4cnn(-c5ccc(F)cc5)c4C=C2CCN(S(=O)(=O)c2ccc(F)c(F)c2)C3)s1"
  pKi: 8.13
- SMILES_CODE: "N#Cc1cccc(S(=O)(=O)N2CCC3=Cc4c(cnn4-c4ccc(F)cc4)C[C@]3(C(=O)c3cc(C(F)(F)F)ccn3)C2)c1"
  pKi: 8.32

Input: pKi lookup needed for Cc1n[nH]c(C)c1S(=O)(=O)N1CCC2=Cc3c(cnn3-c3ccc(F)cc3)C[C@]2(C(=O)c2cc(C(F)(F)F)ccn2)C1 , thanks.
Output: 7.16
